Reference for the values: patent US20240336672A1

Target: SARS-CoV-2 spike, Wuhan strain, on virus or pseudotyped particles (SARS-CoV-2, UniProt P0DTC2 14-1273); also: test concentration or dose not given here
Test: cell-based or functional assay
REPORTED METRIC: S-FuseNEUT (%)
Only the number, expressed in %, is required.

Request: Reported S-FuseNEUT (%) for Cv2.5213 (recombinant human IgG1) (antibody, V domains shown) VH: EVQLVESGGGLIQPGGSLRLSCAASGFTVSSNYMSWVRQAPGKGLEWVSLIYSGGSTYYADSVKGRFTISRDNSKNTLYLQMNSLRAEDTAVYYCARDLNYYGMDVWGQGATVTVSS VL: DIQMTQSPSSLSASVGDRVTITCRASQGISSYLAWYQQKPGKAPKLLIYAASTLQSGVPSRFSGSGSGTDFTLTISSLQPEDFATYYCQQLDSYSPFTFGPGTKVDIKR : what is it?
Response: 96

Request: Given the entry Cv2.3235 (recombinant human IgG1) (antibody, V domains shown) VH: EVQLVESGGGLIQPGGSLRLSCAASGFTVSRNYMSWVRQAPGKGLEWVSVIYSGGSTFYADSVKGRFTISRDNSKNTLYLQMNSLRAEDTAVYYCARDGDYYGMDVWGQGTTVTVSS VL: DIQMTQSPSFLSASVGDRVTITCRASQGISSFLAWYQQKPGKAPKLLIYGASTLQSGVTSRFSGSGSGTEFTLTISSLQPEDFATYYCQRLDSYPPITFGQGTRLEIKR , report its measured S-FuseNEUT (%).
Response: 100

Request: What measured S-FuseNEUT (%) goes with Cv2.1353 (recombinant human IgG1) (antibody, V domains shown) VH: EVQLVESGGGLVQPGGSLRLSCAASGVTVSSNYMNWVRQAPGKGLEWVSVIYSGGSTFYADSVKGRFIISRDNSKNTLYLQMNSLKTEDTAVYYCARDLGPMGFDIWGQGTMVTVSS VL: DIQMTQSPSFLSASVGDRVTITCRASQGISSYLAWYQQKPGKAPKLLIYAASTLQSGVPSRFSGSGSGTEFTLTISSLQPEDFATYYCQQLNSDPPVTFGPGTKVDIKR ?
Response: 100
